Value source: patent US20230295310A1

Target: T1, human CD3 expressed on cells (Jurkat cells; human primary T cells) (human, UniProt P07766 23-207; P04234 22-171; P09693 23-182)
T1 construct: whole, on cells
T1 sequence (P07766 23-207, chain 1 of 3): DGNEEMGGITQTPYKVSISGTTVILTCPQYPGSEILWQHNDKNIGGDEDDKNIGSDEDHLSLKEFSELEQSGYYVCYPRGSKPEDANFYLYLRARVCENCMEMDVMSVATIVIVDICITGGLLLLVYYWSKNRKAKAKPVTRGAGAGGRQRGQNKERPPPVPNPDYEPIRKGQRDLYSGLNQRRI
T1 sequence (P04234 22-171, chain 2 of 3): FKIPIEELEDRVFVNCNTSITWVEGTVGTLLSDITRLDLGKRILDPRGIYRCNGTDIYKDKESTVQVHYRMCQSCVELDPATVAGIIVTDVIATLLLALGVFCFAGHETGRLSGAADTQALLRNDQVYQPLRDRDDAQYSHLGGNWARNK
T1 sequence (P09693 23-182, chain 3 of 3): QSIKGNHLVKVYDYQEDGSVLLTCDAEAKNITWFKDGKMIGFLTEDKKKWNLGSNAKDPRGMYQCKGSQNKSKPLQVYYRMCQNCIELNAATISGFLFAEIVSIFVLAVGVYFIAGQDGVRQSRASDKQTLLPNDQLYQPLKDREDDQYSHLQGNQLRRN
Assay: flow cytometry, 25 nM, Jurkat cells
Quick reference for Binding (FOI) among some binders
Test readout: Binding (FOI)

binder="mAb 260 (antibody, V domains shown, VH/VL only) VH: EVQLLESGGGLVQPGGSLRLSCVASGFTFRSSSMAWVRQAPGKGLEWVSGIRGSGGRTYDAESVKGRFIISRDTSKNTLYLQMNSLRGEDTAEYFCAKLYDYYNDYMDVWGKGTTVTVSS VL: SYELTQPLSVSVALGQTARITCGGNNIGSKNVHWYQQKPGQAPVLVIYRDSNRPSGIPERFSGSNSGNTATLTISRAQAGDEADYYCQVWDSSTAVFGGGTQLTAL" test_readout="Binding (FOI)" recorded_measurement=178
binder="mAb 276 (antibody, V domains shown, VH/VL only) VH: EVQLVESGGGLVQPGGSLRLSCAASGIPFSTYSMNWVRQAPGKGLEWVSYISGSSRTIYYADSVKGRFTISRDNAKKLLFLQMNSLRDEDTAVYYCAREGDYYDSSGWAYWGQGTLVTVSS VL: DIQMTQSPSSLSASVGDRVTITCRASQNIYKYLNWYEQKPGRAPKLLIYTTSNLQSGVPSRFSGSGSGTAFTLIISSLQPEDFATYYCQQSYGSPYTFGQGTKLEIK" test_readout="Binding (FOI)" recorded_measurement=156
binder="mAb 215 (antibody, V domains shown, VH/VL only; the VL is printed as a fragment of 18 residues only) VH: QVQLVESGGGVVQPGRSLRLSCAATGFTFSGYGMHWVRQAPGKGLEWVAIIYYNGNNRKYADSVKGRFTISRDNSKNTVSLQMNSLRVEDTAIYYCTRGDGYNWFVTWGQGTLVTVSS VL: EIVMTQSPATLSVSPGERATLSCRASQSVSSNLAWYRQKPGQAPRLLIYGASTRATGIPVRFSGSGSGTEFTLTISSLQSEDFAVYYCQQYNNWPLTFGGGTKVEIK" test_readout="Binding (FOI)" recorded_measurement=167
binder="mAb 221 (antibody, V domains shown, VH/VL only) VH: QVQLVESGGGVVQPGGSLRLSCAASGFTFSGYGMHWVRQAPGKGLEWVAIIWYNGRKTYYAESVKGRFTISRDNSKNTLSLQMNSLRVEDTAVYYCTAGQGYNWFDPWGQGTLVTVSS VL: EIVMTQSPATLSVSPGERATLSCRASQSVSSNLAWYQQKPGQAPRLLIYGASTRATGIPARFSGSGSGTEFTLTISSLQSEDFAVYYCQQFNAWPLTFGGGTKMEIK" test_readout="Binding (FOI)" recorded_measurement=181
binder="mAb 205 (antibody, V domains shown, VH/VL only) VH: QVQLVESGGGVVQPGKSLRLSCAASGFTFSGYGMHWVRQAPGKGLEWVAIIYYNGKKEYYADSVKGRFTISRDNSKNTLYLQMNSLRAEDTAVYYCTRGEGYNWFDPWGQGTLVTVSS VL: EIVMTQSPATLSVSPGERATLSCRASQSVSSNLAWYQQKPGQAPRLLIYGASTRATGIPARFSGSGSGTEFTLTISSLQSEDFAVYYCKQYNNWPLTFGGGTKVEIK" test_readout="Binding (FOI)" recorded_measurement=180
binder="mAb 286 (antibody, V domains shown, VH/VL only) VH: EVKLVESGGGVVRPGGSLRLSCAASGFTFDDYGMSWVRQAPGKGLEWVSGISWNGGSTGYADSVKGRFTISRDNAKNSLYLQMNSLRAEDTALYHCARDGVPVVKRRYYYYYMDVWGKGTTVTVSS VL: EIVLTQSPDFQSVTPKEKVTITCRASQSIGSSLHWYQQKPDQSPKLLIKYASQSFSGVPSRFSGRGSGTDFTLTINSLEAEDAATYYCHQSGSLPQTFGQGTKVEIK" test_readout="Binding (FOI)" recorded_measurement=232
binder="mAb 191 (antibody, V domains shown, VH/VL only) VH: QVQLVESGGGVVQPGRSLRLSCAASGFTFSGYGMHWVRQAPGKGLEWVAIIYYNGKKEYYADSVKGRFTISRDNSKNTLYLQMNSLRAEDTAVYYCTRGEGYNWFDPWGQGTLVTVSS VL: EIVMTQSPATLSVSPGERATLSCRASQSVSSNLAWYQQKPGQAPRLLIYGASTRATGIPARFSGSGSGTDFTLTISSLQSEHFAVYYCQQYTNWPLTFGGGTKVEIK" test_readout="Binding (FOI)" recorded_measurement=170
binder="mAb 264 (antibody, V domains shown, VH/VL only) VH: EVQLLESGGGLVQPGGSLRLSCVASGFTFRSSSMTWVRQAPGKGLEWVSGIRGSGGRTYDAESVKGRFTISRDNSKNTLYLQMNSLRAEDTAEYYCAKLYDYYNDYMDVWGKGTTVTVSS VL: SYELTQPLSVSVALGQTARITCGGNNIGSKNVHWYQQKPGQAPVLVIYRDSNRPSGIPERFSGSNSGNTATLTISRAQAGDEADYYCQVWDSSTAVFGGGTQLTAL" test_readout="Binding (FOI)" recorded_measurement=174
binder="mAb 229 (antibody, V domains shown, VH/VL only) VH: QEQLVESGGGVVQPGRSLRLSCAASGFTFSSYGMHWVRQAPGKGLEWVAIIYYNGKKKDYADSVKGRFTISRDNSKNTLYLQMNSLRAEDTAVYYCARGLGYNWFDPWGQGTLVTVSS VL: EIVLTQSPDFQSVTPKEKVTITCRASQSIGSSLHWYQQKPDQSPKLLIKYASQSFSGVPSRFSGSGSGTDFTLTINSLEAEDAATYYCHQSSSLPYTFGQGTKLEIK" test_readout="Binding (FOI)" recorded_measurement=180
binder="mAb 228 (antibody, V domains shown, VH/VL only) VH: EVQLLESGGGLVQPGGSLRLSCAASGFTFSNYAMNWVRQAPGKGLEWVSTISGSGGGKYYADSVKGRFTISRDNSKNTLYLHMNSLRAEDTAVYYCAKDPVQDRYYFYYYYMDVWGKGTTVTVSS VL: EIVLTQSPDFQSVTPKEKVTITCRASQSIGSSLHWYQQKPDQSPKLLIKYASQSISGVPSRFSGSGSGTDFTLTINSLEAEDAAAYYCHQSSSLPHTFGQGTKLEIK" test_readout="Binding (FOI)" recorded_measurement=159
